Cited source for all entries: ChEMBL document CHEMBL1149262

Please respond with reported Activity for every item in the list.
- Tested on: Mus musculus
- experiment_summary: Locomotor activity in CD1 mouse assessed as stimulation at 100 mg/kg, ip after 3 hrs relative to control
- Assay type: functional
- assay_setup: route intraperitoneal
Express it in %; write the number only.

Data request, read-out Activity, for COC(=O)[C@H]1[C@@H](OC(=O)c2ccccc2)C[C@@H]2CC[C@H]1N2C [COCAINE] 255

Follow-up item: COC(=O)[C@@H]1C2CCC(C[C@H]1c1ccccc1)N2C (stereo partly specified) 234

Follow-up item: COC(=O)[C@@H]1C2CCC(C[C@H]1c1ccc(Cl)cc1)N2C (stereo partly specified) 1065

Follow-up item: COC(=O)[C@@H]1C2CCC(C[C@H]1c1ccc(I)cc1)N2C (stereo partly specified) 692

Follow-up item: COC(=O)[C@@H]1C2CCC(C[C@H]1c1ccc(F)cc1)N2C (stereo partly specified) 194

Follow-up item: COC(=O)[C@@H]1C2CCC(C[C@H]1c1ccc(C)cc1)N2C (stereo partly specified) 263

###

Please respond with reported ED50 for every item in the list.
- System: Mus musculus
- experiment_summary: Locomotor activity in ip dosed CD1 mouse in peak hour
- Format: functional
Express it in mg/kg; write the number only.

Data request, read-out ED50, for COC(=O)[C@@H]1C2CCC(C[C@H]1c1ccc(F)cc1)N2C (some centres not stated) 15.6

Follow-up item: COC(=O)[C@@H]1C2CC[C@H](C[C@@H]1c1ccc(C)cc1)N2C 0.6

Follow-up item: COC(=O)C1C2CC[C@H](C[C@@H]1c1ccc(Cl)cc1)N2C (some centres not stated) 0.2

Follow-up item: COC(=O)[C@@H]1C2CC[C@H](C[C@@H]1c1ccccc1)N2C 1.2

Follow-up item: COC(=O)[C@H]1[C@@H](OC(=O)c2ccccc2)C[C@@H]2CC[C@H]1N2C [COCAINE] 10

Follow-up item: COC(=O)[C@@H]1C2CCC(C[C@H]1c1ccccc1)N2C (some centres not stated) 21.8

Follow-up item: COC(=O)[C@@H]1C2CCC(C[C@H]1c1ccc(Cl)cc1)N2C (some centres not stated) 9.1

Follow-up item: COC(=O)[C@H]1C2CCC(C[C@@H]1c1ccccc1)N2C (some centres not stated) 11.7

Follow-up item: COC(=O)[C@H]1[C@@H](c2ccc(F)cc2)C[C@H]2CC[C@H]1N2C 0.7

Follow-up item: COC(=O)[C@H]1C2CCC(C[C@@H]1c1ccc(I)cc1)N2C (some centres not stated) 9.9

Follow-up item: COC(=O)[C@@H]1C2CCC(C[C@@H]1c1ccc(Br)cc1)N2C (some centres not stated) 0.1

Follow-up item: COC(=O)[C@@H]1C2CC[C@H](C[C@@H]1c1ccc(I)cc1)N2C 0.4

###

- Test system: Mus musculus
- experiment_summary: Locomotor activity in CD1 mouse assessed as stimulation at 30 mg/kg, ip after 3 hrs relative to control
- Format: functional
- assay_setup: route intraperitoneal
endpoint_name: Activity (%)
Express it in %; write the number only.

Data request, read-out Activity, for COC(=O)[C@H]1[C@@H](OC(=O)c2ccccc2)C[C@@H]2CC[C@H]1N2C -10

Follow-up item: COC(=O)[C@H]1C2CCC(C[C@@H]1c1ccc(I)cc1)N2C (some centres undefined) 268

Follow-up item: COC(=O)[C@@H]1C2CCC(C[C@H]1c1ccc(Br)cc1)N2C (some centres undefined) 1275

Follow-up item: COC(=O)[C@H]1C2CCC(C[C@@H]1c1ccc(F)cc1)N2C (some centres undefined) 298
